Reference source: the supplement of paper PMC9112550

Tested on: Escherichia coli TOP10;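 further: peptides expressed intracellularly from a pBAD plasmid library in pooled LB shake-flask culture, induced with 0.3% L-arabinose, DNA abundance read by NGS, three biological replicates, DESeq2 with apeglm shrinkage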
method.summary: shrunken log2 fold change of peptide-encoding DNA abundance (4.5 h post-induction vs induction); higher = less antimicrobial activity (less host growth inhibition)
test.parameters: time post-induction: 4.5 h; library: site-saturation at positions 5, 18, 19, 20
Known shrunken log2 fold change of a selection of sequences

Please review the following examples before continuing.
RRIRDRPPRLPRPRPRPCHVPRP : -0.0466
RRIRQRPPRLPRPRPRPYMNPRP : -0.155
RRIRSRPPRLPRPRPRPAPWPRP : 0.528
RRIRQRPPRLPRPRPRPHYDPRP : -0.295
RRIRKRPPRLPRPRPRPEPAPRP : 1.45

query: Consider the sequence "RRIRRRPPRLPRPRPRPKQMPRP" and give its measured shrunken log2 fold change.
result: 0.29

query: Further, for "RRIRIRPPRLPRPRPRPWWMPRP" ?
result: -0.0772

query: Further, for "RRIRSRPPRLPRPRPRPFDGPRP" ?
result: 0.0042

query: Further, for "RRIRNRPPRLPRPRPRPFMCPRP" ?
result: -0.202

query: Further, for "RRIRWRPPRLPRPRPRPFKFPRP" ?
result: -0.174

query: Further, for "RRIRARPPRLPRPRPRPIPYPRP" ?
result: -0.0777

query: Further, for "RRIRNRPPRLPRPRPRPHDLPRP" ?
result: 0.0667

query: Further, for "RRIRIRPPRLPRPRPRPRIGPRP" ?
result: -0.0469

query: Further, for "RRIRWRPPRLPRPRPRPGIQPRP" ?
result: 0.468

query: Further, for "RRIRFRPPRLPRPRPRPDTHPRP" ?
result: -0.618

query: Further, for "RRIRHRPPRLPRPRPRPCFNPRP" ?
result: -0.588

query: Further, for "RRIRDRPPRLPRPRPRPHEFPRP" ?
result: 0.00812

query: Further, for "RRIRTRPPRLPRPRPRPALPPRP" ?
result: 0.204

query: Further, for "RRIRNRPPRLPRPRPRPPTWPRP" ?
result: 0.434

query: Further, for "RRIRERPPRLPRPRPRPCTDPRP" ?
result: -0.169

query: Further, for "RRIRTRPPRLPRPRPRPGWTPRP" ?
result: 0.24

query: Further, for "RRIRTRPPRLPRPRPRPECAPRP" ?
result: 0.459

query: Further, for "RRIRNRPPRLPRPRPRPEIQPRP" ?
result: -0.0724
